Target: NLRP3 inflammasome (Homo sapiens (Human))
Sequence (Q96P20 whole entry): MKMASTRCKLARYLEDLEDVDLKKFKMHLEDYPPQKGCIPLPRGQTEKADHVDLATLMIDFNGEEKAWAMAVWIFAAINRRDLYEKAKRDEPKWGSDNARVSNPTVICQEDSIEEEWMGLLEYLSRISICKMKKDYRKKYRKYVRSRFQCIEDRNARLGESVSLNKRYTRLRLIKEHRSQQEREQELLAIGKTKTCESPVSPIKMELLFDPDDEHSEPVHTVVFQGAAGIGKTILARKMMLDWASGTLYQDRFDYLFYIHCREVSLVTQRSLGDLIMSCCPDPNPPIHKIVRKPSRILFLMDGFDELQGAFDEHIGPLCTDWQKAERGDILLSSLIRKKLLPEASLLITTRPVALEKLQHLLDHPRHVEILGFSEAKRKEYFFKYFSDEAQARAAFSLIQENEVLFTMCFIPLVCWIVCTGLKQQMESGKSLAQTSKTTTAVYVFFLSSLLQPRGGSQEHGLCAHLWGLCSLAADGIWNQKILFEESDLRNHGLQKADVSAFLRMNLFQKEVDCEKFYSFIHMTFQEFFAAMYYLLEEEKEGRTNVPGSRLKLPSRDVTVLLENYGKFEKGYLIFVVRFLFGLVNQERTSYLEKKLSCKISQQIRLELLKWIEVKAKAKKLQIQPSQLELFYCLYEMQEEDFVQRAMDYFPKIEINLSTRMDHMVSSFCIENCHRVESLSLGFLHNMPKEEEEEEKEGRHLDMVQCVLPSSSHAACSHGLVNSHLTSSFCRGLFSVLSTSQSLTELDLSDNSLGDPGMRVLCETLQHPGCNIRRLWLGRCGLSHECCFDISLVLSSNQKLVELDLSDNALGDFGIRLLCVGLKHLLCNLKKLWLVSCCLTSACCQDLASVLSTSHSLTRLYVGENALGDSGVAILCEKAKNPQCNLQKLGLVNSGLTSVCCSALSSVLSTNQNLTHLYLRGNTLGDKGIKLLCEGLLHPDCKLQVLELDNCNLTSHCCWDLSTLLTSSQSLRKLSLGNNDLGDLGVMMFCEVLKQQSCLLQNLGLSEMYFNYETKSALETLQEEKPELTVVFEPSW
Experiment: NLRP3 inflammasome inhibitory activity: inhibition of IL-1β production in THP1-Null cells (PMA, LPS, Nigericin)
Conditions: Nigericin 7.5 μmol/L
observation_type: IC50 (µM)

[[record]]
smiles = "Cc1cc(C2CC2)cc(C)c1-n1cc2c(=O)[nH]c(-c3ccn(C(F)F)n3)nc2n1"
reported_value = 0.055

[[record]]
smiles = "Cc1cc(C(C)(F)F)cc(C)c1-n1cc2c(=O)[nH]c(-c3ccncn3)nc2n1"
reported_value = 0.014

[[record]]
smiles = "Cc1cc(C2CC2)cc(C)c1-n1cc2c(=O)[nH]c(-c3cn(C)nn3)nc2n1"
reported_value = 0.012

[[record]]
smiles = "Cc1cc(C2(F)CC2)cc(C)c1-n1cc2c(=O)[nH]c(-c3ccn(C)n3)nc2n1"
reported_value = 0.0031


----------
Target: NLRP3 inflammasome (Homo sapiens (Human))
Experiment: NLRP3 inflammasome inhibitory activity: inhibition of IL-1β production in THP1-Null cells (PMA, LPS, Nigericin)
Details: Nigericin 7.5 μmol/L
Description: The NLRP3 inflammasome inhibitory activity of test compounds were evaluated on the basis of the inhibitory activity of the IL-1β production in THP1-Null cells (Product Number: thp-null, InvivoGen). […] The amount of IL-1β in the culture supernatant was quantitated with AlphaLISA (registered trademark) Human IL-1β Detection Kit (Product Number: AL220C, Perkin Elmer). […]
log10 IC50 listing for selected compounds.
observation_type: log10 IC50 (log10 of the value in nM)

[[record]]
smiles = "Cc1cc(Br)cc(C)c1-n1cc2c(=O)[nH]c(-c3ccn(C)n3)nc2n1"
observation_type = "log10 IC50"
reported_value = 1.30

[[record]]
smiles = "Cc1cc(C2CC2)cc(C)c1-n1cc2c(=O)[nH]c(-c3cc4n(n3)CCCO4)nc2n1"
observation_type = "log10 IC50"
reported_value = 1.38

[[record]]
smiles = "Cc1cc(C2CC2)cc(C)c1-n1cc2c(=O)[nH]c(-c3ccncn3)nc2n1"
observation_type = "log10 IC50"
reported_value = 0.63

[[record]]
smiles = "Cn1ccc(-c2nc3nn(-c4cc5c(cc4Cl)OCCC5)cc3c(=O)[nH]2)n1"
observation_type = "log10 IC50"
reported_value = 1.92

[[record]]
smiles = "Cn1ccc(-c2nc3nn(-c4cc5c(cc4Cl)CCC5)cc3c(=O)[nH]2)n1"
observation_type = "log10 IC50"
reported_value = 1.53

[[record]]
smiles = "Cc1cc(OC(F)F)cc(C)c1-n1cc2c(=O)[nH]c(-c3cccnn3)nc2n1"
observation_type = "log10 IC50"
reported_value = 1.79

[[record]]
smiles = "Cc1cc(C2CC2)cc(C)c1-n1cc2c(=O)[nH]c(-c3cc[nH]n3)nc2n1"
observation_type = "log10 IC50"
reported_value = 1.46

[[record]]
smiles = "Cc1cc(I)cc(C)c1-n1cc2c(=O)[nH]c(-c3ccn(C)n3)nc2n1"
observation_type = "log10 IC50"
reported_value = 0.40

[[record]]
smiles = "Cc1cc(Br)cc(C)c1-n1cc2c(=O)[nH]c(-c3ccncc3F)nc2n1"
observation_type = "log10 IC50"
reported_value = 1.38

[[record]]
smiles = "Cc1cc(C2CC2)cc(C)c1-n1cc2c(=O)[nH]c(-c3ccn(C)n3)nc2n1"
observation_type = "log10 IC50"
reported_value = 1.18

[[record]]
smiles = "Cc1cc(C2CC2)cc(C)c1-n1cc2c(=O)[nH]c(-c3ccn(C4COC4)n3)nc2n1"
observation_type = "log10 IC50"
reported_value = 1.79

[[record]]
smiles = "Cc1ncc(-c2nc3nn(-c4c(C)cc(Br)cc4C)cc3c(=O)[nH]2)o1"
observation_type = "log10 IC50"
reported_value = 1.72

